Test system: Sil-15 cells containing a RARE driving a lacZ reporter
assay_info: X-Gal-based RA reporter assay (genomic response)
Assay type: cell-based
assay_setup: read-out: genomic response EC50 (±95% CI); Sil-15 reporter cells, overnight, 10^–6 to 10^–14 M
pEC50: −log10 of the molar value.
Label scheme for pEC50: lower than 10 is false (0), 10 and above is true (1).

>>> group_label("Cc1sc(-c2ccc(C(=O)O)cc2)nc1-c1cnc2c(n1)C(C)(C)CCC2(C)C")
"true (1)"
>>> group_label("Cc1sc(-c2ccc(C(=O)O)cn2)nc1-c1cnc2c(n1)C(C)(C)CCC2(C)C")
"false (0)"
>>> group_label("Cc1cc2c(cc1C#Cc1ncc(C(=O)O)cn1)C(C)(C)CCC2(C)C")
"false (0)"
>>> group_label("Cc1cc2c(cc1C#Cc1cc(F)c(C(=O)O)c(F)c1)C(C)(C)CCC2(C)C")
"false (0)"
>>> group_label("CC1(C)CCC(C)(C)c2cc(C#Cc3ccc(C(=O)O)cc3Cl)ccc21")
"false (0)"
>>> group_label("COc1cc2c(cc1C#Cc1ccc(C(=O)O)cc1F)C(C)(C)CCC2(C)C")
"false (0)"

The values you see were collected from paper PMC12163635.
